# System: gabapentin binding site
# Test Details: Binding assay: displacement of gabapentin from its binding site
# Run Parameters: inhibition/displacement of gabapentin; concentration 10^−5 μM [sic]
Assay Readout: Percent inhibition (%)
Record the value in %, omitting the unit from your answer.

Cc1ccc(S(=O)(=O)/N=C(\N)NCc2ccccc2)cc1 : 69.7
Cc1ccc(S(=O)(=O)/N=C(/N)NCc2ccco2)cc1.Cl : 26
Cc1ccc(S(=O)(=O)/N=C(\N)NCc2ccccn2)cc1 : 82

Lab note: next molecule to report on.
Recorded result, `Cl.N/C(=N/S(=O)(=O)c1ccc(Cl)cc1)NCc1ccco1` , Percent inhibition: 23.5

---

# Target Entity: gabapentin binding site
# Test Details: Binding assay: displacement of gabapentin from its binding site
# Run Parameters: displacement of gabapentin from its binding site
Listing of recorded pIC50 by entry.
Please express pIC50 as -log10 of the molar concentration.

Here's what some known entries look like.
CCCCc1ccc(S(=O)(=O)/N=C(\N)NCc2ccccn2)cc1 : 6.77
CC(C)c1ccc(S(=O)(=O)/N=C(/N)NCc2ccco2)cc1 : 5.45
CC(C)(C)c1ccc(S(=O)(=O)/N=C(/N)NCc2cccs2)cc1 : 5.24
Cc1c(S(=O)(=O)/N=C(\N)NCc2ccccn2)sc2ccc(Cl)cc12 : 6.87
CC(C)(C)c1ccc(S(=O)(=O)/N=C(/N)NCc2ccccn2)cc1 : 7.05
N/C(=N\S(=O)(=O)c1ccc(I)cc1)NCc1ccccn1 : 7.30

Log: gabapentin binding site, molecule `N/C(=N\S(=O)(=O)c1cccc2cccnc12)NCc1ccccn1` , pIC50 = 5.55

Log: gabapentin binding site, molecule `N/C(=N\S(=O)(=O)c1cccc2ccccc12)NCc1ccccn1` , pIC50 = 5.28

Log: gabapentin binding site, molecule `N/C(=N\S(=O)(=O)c1ccc(Cl)cc1)NCc1ccccn1` , pIC50 = 6.11

---

# Target Entity: gabapentin binding site
# Test Details: Binding assay: displacement of gabapentin from its binding site
# Run Parameters: displacement of gabapentin from its binding site
# Description: Gabapentin was used in a binding assay in order to check the binding and affinities of the selected compounds. The affinity of the compounds according to the invention was measured via the displacement of gabapentin from its binding site.
pIC50: −log10 of the molar value.
Mark fulfilled for reported pIC50 of 7 or greater; mark not fulfilled for anything smaller.

A selection of reference data follows.
CCCc1ccc(S(=O)(=O)/N=C(/N)NCc2cccs2)cc1 : not fulfilled
N/C(=N\S(=O)(=O)c1ccc(Br)cc1)NCc1ccccn1 : not fulfilled
COc1ccc(S(=O)(=O)/N=C(\N)NCc2ccccn2)cc1 : not fulfilled
N/C(=N\S(=O)(=O)c1ccc(Cl)c(Cl)c1)NCc1ccccn1 : not fulfilled
CC(C)c1ccc(S(=O)(=O)/N=C(\N)NCc2ccccn2)cc1 : fulfilled
Cc1ccc(S(=O)(=O)/N=C(\N)NCc2ccccn2)cc1 : not fulfilled

Q: Could you please find out whether `CCCc1ccc(S(=O)(=O)/N=C(/N)NCc2ccco2)cc1` has pIC50 that meets 7 or exceeds it?
Result: not fulfilled

Q: Could you please find out whether `CC(C)c1ccc(S(=O)(=O)/N=C(/N)NCc2cccs2)cc1` has pIC50 that meets 7 or exceeds it?
Result: not fulfilled

Q: Could you please find out whether `CCCc1ccc(S(=O)(=O)/N=C(\N)NCc2ccccn2)cc1` has pIC50 that meets 7 or exceeds it?
Result: fulfilled

Q: Could you please find out whether `Cc1cc(C)c(S(=O)(=O)/N=C(\N)NCc2ccccn2)c(C)c1` has pIC50 that meets 7 or exceeds it?
Result: not fulfilled

---

# Test system: gabapentin binding site
# Test Details: Binding assay: displacement of gabapentin from its binding site
# Run Parameters: inhibition/displacement of gabapentin; concentration 10^−5 μM [sic]
Assay Readout: Percent inhibition (%)
Record the value in %, omitting the unit from your answer.

Here's what some known entries look like.
N/C(=N\S(=O)(=O)c1ccc(Cl)cc1)NCc1ccccn1 : 75
Cc1ccc(S(=O)(=O)/N=C(/N)NCc2cccs2)cc1.Cl : 29
CC(C)(C)c1ccc(S(=O)(=O)/N=C(/N)NCc2ncccn2)cc1.Cl : 5
CC(=O)Nc1ccc(S(=O)(=O)/N=C(\N)NCc2ccccn2)cc1.Cl : 27

Lab note: next molecule to report on.
Recorded result, `Cl.N/C(=N/S(=O)(=O)c1ccc(Cl)cc1)NCc1cccs1` , Percent inhibition: 24

---

# System: gabapentin binding site
# Test Details: Binding assay: displacement of gabapentin from its binding site
# Run Parameters: inhibition/displacement of gabapentin; concentration 10^−5 μM [sic]
Mark fulfilled for reported Percent inhibition of 40% or greater; mark not fulfilled for anything smaller.

CCCCc1ccc(S(=O)(=O)/N=C(/N)NCc2ccco2)cc1.Cl : fulfilled

Q: Could you please find out whether `Cl.N/C(=N\S(=O)(=O)c1ccc(F)cc1)NCc1ccccn1` has Percent inhibition that meets 40% or exceeds it?
Result: not fulfilled

Q: Could you please find out whether `Cl.N/C(=N\S(=O)(=O)c1ccccc1)NCc1ccccn1` has Percent inhibition that meets 40% or exceeds it?
Result: not fulfilled

Q: Could you please find out whether `N/C(=N\S(=O)(=O)c1cccs1)NCc1ccccn1` has Percent inhibition that meets 40% or exceeds it?
Result: not fulfilled

Q: Could you please find out whether `CC(C)(C)c1ccc(S(=O)(=O)/N=C(/N)NCc2ccco2)cc1.Cl` has Percent inhibition that meets 40% or exceeds it?
Result: fulfilled

Q: Could you please find out whether `Cc1cccc(S(=O)(=O)/N=C(\N)NCc2ccccn2)c1` has Percent inhibition that meets 40% or exceeds it?
Result: not fulfilled
